# Test system: SW-620 colon
# procedureSummary: NCI tumour cell line growth inhibition, 48 h
Listed here are compounds together with their documented TGI.

>>> recordedmeasurement("O=S1(=O)CC#CC[C@@H](CO)[C@@H](CO)CC#CC1")
"> 100 µM"
>>> recordedmeasurement("CC1O[C@@H]2CCCCC(=O)[C@]2(C)[C@H]1C (stereo partly specified)")
"> 100 µM"
>>> recordedmeasurement("COC(=O)/C(=C1\\OC(=O)C(c2ccc(Cl)cc2)=C1O)c1ccc(Cl)cc1")
"> 100 µM"
>>> recordedmeasurement("COC(=O)C12CCC(CC1=O)C2(C)C (stereo unspecified)")
"> 100 µM"
>>> recordedmeasurement("O=C1/C(=C/Cc2ccco2)N=C(c2ccccc2)N1c1nc2ccc(Sc3ccccc3)cc2[nH]1")
"> 100 µM"
>>> recordedmeasurement("CCC(/C(=N/NC(=O)C[N+](C)(C)C)c1ccccc1)C1OC(=O)c2ccccc21 (stereo unspecified)")
"> 100 µM"
>>> recordedmeasurement("CC(=O)Nc1ccc2c(c1)[nH]c(=O)c1cc(NC(C)=O)ccc12")
"> 100 µM"
>>> recordedmeasurement("CC(C)Cc1cc(-c2cccn2C)c(C#N)c(=O)[nH]1")
"> 100 µM"

Lab note: measured TGI of O=C(O)[C@@H](Cc1ccccc1)NS(=O)(=O)c1ccc(-c2ccccc2)cc1 was > 100 µM

Lab note: measured TGI of C/C(COc1ccccc1)=N\NC(N)=S was > 100 µM

Lab note: measured TGI of O=C1NC(=O)/C(=C/c2ccc3nccc(-c4ccncc4)c3c2)S1 was > 10 µM

Lab note: measured TGI of O=C(/C=C/c1cc2ccccc2[nH]c1=O)c1ccc(O)cc1 was 4.45 µM

Lab note: measured TGI of O=C(COc1ccc(Cl)cc1Cl)NNc1ccc([N+](=O)[O-])cc1 was > 100 µM

* * *

# System: UO-31 renal
# procedureSummary: NCI tumour cell line growth inhibition, 48 h
Listed here are molecules together with their documented TGI.

Consider the worked cases shown below.
>>> recordedmeasurement("CCc1c[n+]2c(cc1C1=CN3c4ccccc4[C@]45CCN6C/C(=C/CO)[C@H](C[C@H]64)[C@@H]([C@@H]1O)[C@H]35)-c1[nH]c3ccccc3c1CC2")
"> 50 µM"
>>> recordedmeasurement("CC1O[C@@H]2CCCCC(=O)[C@]2(C)[C@H]1C (some centres undefined)")
"> 100 µM"
>>> recordedmeasurement("CCC(/C(=N/NC(=O)C[N+](C)(C)C)c1ccccc1)C1OC(=O)c2ccccc21 (centres undefined)")
"> 100 µM"
>>> recordedmeasurement("CC(=O)[C@H]1CC[C@@H]2[C@]1(C)CC=C1[C@]23C=C[C@]2(C[C@@H](O)CC[C@]12C)C(C(=O)O)C3C(=O)O (some centres undefined)")
"> 100 µM"
>>> recordedmeasurement("O=C(NC12CC3CC(CC(C3)C1)C2)n1cnc2c(Cl)ncnc21")
"> 100 µM"
>>> recordedmeasurement("OC[C@@H](O)[C@H](O)[C@H](O)[C@@H](O)C1SCCCS1")
"> 100 µM"

Lab note: measured TGI of COc1ccccc1-c1nc[nH]c1-c1ccccc1OC was > 100 µM

Lab note: measured TGI of COc1c(C(=O)CC2c3c(cc4oc(C)cc(=O)c4c3OC)OC(=N)C2c2nc3ccccc3[nH]2)c(O)c(OC)c2occc12 (centres undefined) was > 100 µM

Lab note: measured TGI of CCOC1=C2N=C(C(CC)c3ccc(F)cc3)N=C2C(=O)c2ccccc21 (centres undefined) was 55.5 µM

Lab note: measured TGI of COc1cc2cc(C(=O)Nc3ccccc3)c(N)nc2cc1OC was > 100 µM

Lab note: measured TGI of CC(=O)OCc1cc[c]([Hg][Cl])o1 was 3.45 µM

Lab note: measured TGI of O=C(NNC(=O)/C(=C/c1cccc([N+](=O)[O-])c1)NC(=O)c1ccccc1)Nc1ccc(Cl)cc1 was 27.3 µM

Lab note: measured TGI of Nc1nc(Cl)cc(Oc2ccc(Cl)cc2)n1 was > 100 µM

Lab note: measured TGI of COC(=O)C12CCC(CC1=O)C2(C)C (centres undefined) was > 100 µM

Lab note: measured TGI of CCN1CCC(O)(/C=C/c2ccc(Cl)c(Cl)c2)C(C(=O)/C=C/c2ccc(Cl)c(Cl)c2)C1 (centres undefined) was 2.3 µM

Lab note: measured TGI of O=C(NC1CCCCC1)N1CCNC1=S was > 100 µM

Lab note: measured TGI of CC(NC(=O)C(NC(=O)C(NC(=O)C(F)(F)F)C(C)C)C(C)C)C(=O)Oc1c(Cl)c(Cl)c(Cl)c(Cl)c1Cl (centres undefined) was > 100 µM

Lab note: measured TGI of O=S1(=O)OCCOS(=O)(=O)C1C1c2ccccc2-c2ccccc21 was 93.2 µM

Lab note: measured TGI of O=C(Nc1c(Cl)cccc1Cl)Oc1cccc2cccnc12 was 51.8 µM

* * *

# Test system: CCRF-CEM leukemia
# procedureSummary: NCI tumour cell line growth inhibition, 48 h
Listed here are molecules together with their documented TGI.
Kindly answer with a numeric value in µM, unit omitted.

>>> recordedmeasurement("C=C1C(=O)O[C@H]2[C@H]1CC/C(COC(=O)NCCc1ccc(Br)cc1)=C\\CC[C@@]1(C)O[C@@H]21")
0.847

Okay, next one:
Hey, CCRF-CEM leukemia data for O/N=C1/C(=C/c2ccc(Br)cc2)CCCC1C(NO)c1ccc(Br)cc1 (stereo not given) : TGI came out at 51.2

* * *

# Tested on: MDA-MB-231 breast
# procedureSummary: NCI tumour cell line growth inhibition, 48 h
metric: TGI

Consider the worked cases shown below.
>>> recordedmeasurement("CC(=O)[C@H]1CC[C@@H]2[C@]1(C)CC=C1[C@]23C=C[C@]2(C[C@@H](O)CC[C@]12C)C(C(=O)O)C3C(=O)O (stereo partly specified)")
"> 100 µM"
>>> recordedmeasurement("COC(=O)C1(N2CCOCC2)CCC([C@@H](c2ccccc2)C(C)[N+](=O)[O-])C1 (stereo partly specified)")
"> 100 µM"
>>> recordedmeasurement("Oc1ccc(Cl)cc1N=Nc1c(O)ccc2ccccc12")
"> 100 µM"
>>> recordedmeasurement("COc1cc2cc(C(=O)Nc3ccccc3)c(N)nc2cc1OC")
"> 100 µM"
>>> recordedmeasurement("O=C(O)Cn1cnc2c(=O)[nH]c(Nc3ccccc3)nc21")
"> 100 µM"

Hey, MDA-MB-231 breast data for COc1cc(OC)c(OC)cc1/C=C/c1ccc2ccccc2n1 : TGI came out at > 10 µM

Hey, MDA-MB-231 breast data for CC(C)Cc1cc(-c2cccn2C)c(C#N)c(=O)[nH]1 : TGI came out at > 100 µM

Hey, MDA-MB-231 breast data for N/C(=N/O)NOCCC(N)C(=O)O (stereo unspecified) : TGI came out at > 100 µM

Hey, MDA-MB-231 breast data for O=C(N/N=C/c1ccc(O)cc1)NNCCO : TGI came out at > 100 µM

Hey, MDA-MB-231 breast data for CCOP(=O)(OCC)C(Cc1cn(S(=O)(=O)c2ccc(C)cc2)cn1)C(=O)O (stereo unspecified) : TGI came out at > 100 µM

Hey, MDA-MB-231 breast data for [N-]=[N+]=NCCCn1c2c(c3ccccc3c1=O)C(=O)c1cc3c(cc1-2)OCO3 : TGI came out at > 100 µM

* * *

# System: XF 498 CNS
# procedureSummary: NCI tumour cell line growth inhibition, 48 h
Listed here are compounds together with their documented TGI.

Consider the worked cases shown below.
>>> recordedmeasurement("O=C1C2=C(c3ccccc31)C(c1ccc([N+](=O)[O-])cc1)NC(=S)N2 (stereo not given)")
"> 100 µM"
>>> recordedmeasurement("N#Cc1cc([N+](=O)[O-])ccc1NC(=O)C(=O)Nn1c(=S)[nH]c2ccccc2c1=O")
"> 100 µM"
>>> recordedmeasurement("CC(C)C(N=C1CC2CCC1(C(=O)Nc1ccccc1O)C2(C)C)c1ccccc1 (stereo not given)")
"> 10 µM"
>>> recordedmeasurement("CCC(/C(=N/NC(=O)C[N+](C)(C)C)c1ccccc1)C1OC(=O)c2ccccc21 (stereo not given)")
"> 100 µM"

Lab note: measured TGI of COC(=O)C12CCC(CC1=O)C2(C)C (stereo not given) was > 100 µM

* * *

# Test system: A549 NSCLC
# procedureSummary: NCI tumour cell line growth inhibition, 48 h
Listed here are compounds together with their documented GI50.

Consider the worked cases shown below.
>>> recordedmeasurement("O=C(COc1ccc(Cl)cc1Cl)NNc1ccc([N+](=O)[O-])cc1")
"> 100 µM"
>>> recordedmeasurement("CCCCCCCN(CCCCCCC)C(=N)c1ccc(OC)c2ccccc12")
"1.37 µM"
>>> recordedmeasurement("C#Cc1cccc(NC(=O)C2CCCCN2C(=O)CCl)c1 (configuration not stated)")
"> 82.5 µM"

Hey, A549 NSCLC data for Cc1cc(S(=O)(=O)Nc2nc3ccccc3s2)c(SCc2ccccc2)cc1Cl : GI50 came out at 13.9 µM

Hey, A549 NSCLC data for Clc1ccc(Nc2nnc(COc3ccccc3)c3ccccc23)cc1 : GI50 came out at 2.87 µM

Hey, A549 NSCLC data for Nc1cc2c3ccccc3ccc2c2ccccc12 : GI50 came out at 23.9 µM

Hey, A549 NSCLC data for CCN(Cc1c(F)cccc1C(F)(F)F)c1ccc(CO)c(Cl)c1 : GI50 came out at 5.56 µM
